Test system: YT (IL-2 2.5 ng/mL)
Test: percent inhibition of viability; higher = more inhibition
Settings: 72 h; 1000 nM
Measured Metric: percent inhibition of viability (%)
Field: numeric (%). Do not append units.

percent inhibition of viability reading for CCCCc1nc2cc(/C=C/C(=O)NO)ccc2n1CCN(CC)CC [Pracinostat] (max concentration tested 10000 nM) : 100

percent inhibition of viability reading for Nc1nccc(-c2c(-c3ccc(F)cc3)ncn2C2CCCCC2)n1 (max concentration tested 10000 nM) : 15.5

percent inhibition of viability reading for C[C@@]1(C(=O)Nc2ccc(F)nc2)CCCN1c1nc(Nc2cc(C3CC3)n[nH]2)c2cccn2n1 (max concentration tested 10000 nM) : 25

percent inhibition of viability reading for Nc1cc(C(F)(F)F)c(-c2cc(N3CCOCC3)nc(N3CCOCC3)n2)cn1 [Buparlisib] (max concentration tested 10000 nM) : 41.5

percent inhibition of viability reading for C[C@]1(c2nc3c(C(N)=O)cccc3[nH]2)CCCN1 [Veliparib] (max concentration tested 10000 nM) : -0.22

percent inhibition of viability reading for COc1cc2/c(=N/c3ccc(Br)cc3F)nc[nH]c2cc1OCC1CCN(C)CC1 [Vandetanib] (max concentration tested 1000 nM) : 12.9

percent inhibition of viability reading for COCC(=O)NC/C=C/c1ccc2ncnc(Nc3ccc(Oc4ccc(C)nc4)c(C)c3)c2c1 (max concentration tested 10000 nM) : 9.46

* * *

Test system: YT (IL-2 2.5 ng/mL)
Experiment: percent inhibition of viability; higher = more inhibition
Details: 72 h; 1 nM
The entries below are paired with their reported percent inhibition of viability.
Field: numeric (%). Do not append units.

Molecule | Unit Annotation | Numeric Readout
CN(C)C1CCN(C(=O)c2ccc(NC(=O)Nc3ccc(-c4nc(N5CCOCC5)nc(N5CCOCC5)n4)cc3)cc2)CC1 [Gedatolisib] (max concentration tested 1000 nM) | % | -2.24
COCC[n+]1c2c(n(Cc3cnccn3)c1C)C(=O)c1ccccc1C2=O [YM155] (max concentration tested 10000 nM) | % | 5.75
N#Cc1ccc(C(c2ccc(C#N)cc2)n2cncn2)cc1 [Letrozole] (max concentration tested 10000 nM) | % | 0.65
CC(=O)O[C@H]1C(=O)[C@@]2(C)[C@H]([C@H](OC(=O)c3ccccc3)[C@]3(O)C[C@H](OC(=O)[C@H](O)[C@@H](NC(=O)c4ccccc4)c4ccccc4)C(C)=C1C3(C)C)[C@]1(OC(C)=O)CO[C@@H]1C[C@@H]2O [Paclitaxel] (max concentration tested 1000 nM) | % | -2.24
CNC(=O)c1ccc(N2C(=S)N(c3ccc(C#N)c(C(F)(F)F)c3)C(=O)C23CCC3)cc1F [RD162] (max concentration tested 10000 nM) | % | -8.11
Nc1ccn([C@@H]2O[C@H](CO)[C@@H](O)[C@@H]2O)c(=O)n1 [Cytarabine] (max concentration tested 10000 nM) | % | -3.82

Tested on YT (IL-2 2.5 ng/mL): CCc1cncnc1N1CCN(Cc2nc3ccc(C(F)(F)F)cc3[nH]2)CC1 (max concentration tested 10000 nM) . Observed percent inhibition of viability: -1.53

Tested on YT (IL-2 2.5 ng/mL): C=C1C[C@@H]2[C@H](CC[C@]3(C)C(=O)CC[C@@H]23)[C@@]2(C)C=CC(=O)C=C12 [Exemestane] (max concentration tested 10000 nM) . Observed percent inhibition of viability: -3.57

Tested on YT (IL-2 2.5 ng/mL): C=CCNC1=C2C[C@@H](C)C[C@H](OC)[C@H](O)[C@@H](C)/C=C(\C)[C@H](OC(N)=O)[C@@H](OC)/C=C\C=C(/C)C(=O)NC(=CC1=O)C2=O [Tanespimycin] (max concentration tested 10000 nM) . Observed percent inhibition of viability: -5.76

Tested on YT (IL-2 2.5 ng/mL): Nc1ncn([C@@H]2O[C@H](CO)[C@@H](O)[C@H]2O)c(=O)n1 [Azacitidine] (max concentration tested 10000 nM) . Observed percent inhibition of viability: -1.86

* * *

Tested on: NK-92 (IL-2 2.5 ng/mL)
Experiment: drug sensitivity score (DSS) (DSS units); higher = more sensitive; extreme values may be limits of the assay
Conditions: 72 h
The entries below are paired with their reported drug sensitivity score.

Here are 4 molecules together with their reported answers.
Molecule | Measured Metric | Result
Nc1nc(Cl)nc2c1ncn2[C@H]1C[C@H](O)[C@@H](CO)O1 [Cladribine] (max concentration tested 1000 nM) | drug sensitivity score | 17.1
COc1cccc2cc(-c3nc([C@H]4CC[C@H](C(=O)O)CC4)n4ncnc(N)c34)[nH]c12 [OSI-027] (max concentration tested 10000 nM) | drug sensitivity score | 8.91
C=CCc1cccc(/C=N/NC(=O)CN2CCN(Cc3ccccc3)CC2)c1O [PAC-1] (max concentration tested 10000 nM) | drug sensitivity score | 12
COc1c(C)cnc(Cn2cnc3c(Cl)nc(N)nc32)c1C [BIIB021] (max concentration tested 10000 nM) | drug sensitivity score | 24.4

drug sensitivity score reading for Cc1ccccc1C(C(=O)NC1CCCCC1)N(C(=O)Cn1ccnc1C)c1cccc(F)c1 (configuration not stated) [AGI-5198] (max concentration tested 10000 nM) : 0.01

drug sensitivity score reading for O=C(Nc1ccc(OC(F)(F)F)cc1)c1sccc1NCc1ccnc2ccccc12 [OSI-930] (max concentration tested 2500 nM) : 1.27

drug sensitivity score reading for COc1cccc2c1C(=O)c1c(O)c3c(c(O)c1C2=O)C[C@@](O)(C(=O)CO)C[C@@H]3O[C@H]1C[C@H](N)[C@H](O)[C@H](C)O1 [Doxorubicin] (max concentration tested 1000 nM) : 12.8

drug sensitivity score reading for CCC(C)n1ncn(-c2ccc(N3CCN(c4ccc(OCC5COC(Cn6cncn6)(c6ccc(Cl)cc6Cl)O5)cc4)CC3)cc2)c1=O (configuration not stated) [Itraconazole] (max concentration tested 5000 nM) : 10.1

* * *

Tested on: normal primary NK cells, pool 3 (3 donors) (IL-2 2.5 ng/mL)
Assay: percent inhibition of viability; higher = more inhibition
Settings: 72 h; 1000 nM
Measured Metric: percent inhibition of viability (%)
Field: numeric (%). Do not append units.

Here are 2 compounds together with their reported answers.
Compound | Unit Annotation | Numeric Readout
CCc1cncnc1N1CCN(Cc2nc3ccc(C(F)(F)F)cc3[nH]2)CC1 (max concentration tested 10000 nM) | % | -6.89
COc1cccc2c1C(=O)c1c(O)c3c(c(O)c1C2=O)C[C@@](O)(C(=O)CO)C[C@@H]3O[C@H]1C[C@H](N)[C@H](O)[C@H](C)O1 [Doxorubicin] (max concentration tested 1000 nM) | % | 97.2

Here's the next entry for you.
percent inhibition of viability reading for CCn1c(=O)c(-c2cc[nH]n2)cc2c(C)nc(N)nc21 [Voxtalisib] (max concentration tested 10000 nM) : 17.8

* * *

The entries below are paired with their reported percent inhibition of viability.
Tested on: DERL-7 (IL-2 2.5 ng/mL)
Test: percent inhibition of viability; higher = more inhibition
Conditions: 72 h; 1 nM
Field: numeric (%). Do not append units.

Here are 5 compounds together with their reported answers.
Compound | Unit Annotation | Numeric Readout
CC[C@@H]1C(=O)N(C)c2cnc(Nc3ccc(C(=O)NC4CCN(C)CC4)cc3OC)nc2N1C1CCCC1 [BI 2536] (max concentration tested 1000 nM) | % | 1.66
COc1ccc(C2=N[C@@H](c3ccc(Cl)cc3)[C@@H](c3ccc(Cl)cc3)N2C(=O)N2CCNC(=O)C2)c(OC(C)C)c1 [Nutlin-3] (max concentration tested 10000 nM) | % | 0.15
O=C1CN2Cc3c(ccc(Cl)c3Cl)N=C2N1 [Anagrelide] (max concentration tested 10000 nM) | % | 0.58
CN1CCN(c2ccc3nc(-c4c(N)c5c(F)cccc5[nH]c4=O)[nH]c3c2)CC1 [Dovitinib] (max concentration tested 10000 nM) | % | -0.26
Nc1ncn([C@H]2C[C@H](O)[C@@H](CO)O2)c(=O)n1 [Decitabine] (max concentration tested 10000 nM) | % | 0.66

percent inhibition of viability reading for Nc1nc2[nH]cnc2c(=S)[nH]1 [Thioguanine] (max concentration tested 10000 nM) : -5.49

percent inhibition of viability reading for Cc1ccc(-c2cc(C(F)(F)F)nn2-c2ccc(S(N)(=O)=O)cc2)cc1 [Celecoxib] (max concentration tested 10000 nM) : -4.04

percent inhibition of viability reading for CNC(=O)c1ccc(N2C(=S)N(c3cnc(C#N)c(C(F)(F)F)c3)C(=O)C23CCC3)cc1F [ARN 509] (max concentration tested 10000 nM) : 6.41

percent inhibition of viability reading for CCc1cc2c(cc1N1CCC(N3CCOCC3)CC1)C(C)(C)c1[nH]c3cc(C#N)ccc3c1C2=O [Alectinib] (max concentration tested 1000 nM) : -2.79

percent inhibition of viability reading for O=C(Nc1cccnc1)N1CCC(Cc2cccc(Oc3ccc(C(F)(F)F)cn3)c2)CC1 [PF-3845] (max concentration tested 10000 nM) : 3.63

percent inhibition of viability reading for CS(=O)(=O)c1ccc(C(=O)Nc2ccc(Cl)c(-c3ccccn3)c2)c(Cl)c1 [Vismodegib] (max concentration tested 10000 nM) : 5.54

percent inhibition of viability reading for Cc1ccc(F)c(NC(=O)Nc2ccc(-c3cccc4[nH]nc(N)c34)cc2)c1 [Linifanib] (max concentration tested 1000 nM) : 1.81
